FIC Index for assorted substances
# System: P. aeruginosa H374
# Type: cell-based, Pseudomonas aeruginosa
# measurement_conditions: chloramphenicol + peptide at ¼ MIC, 0.5 or less = synergy
No end group written: not given here.

{"columns": ["substance", "target", "FIC Index"],
 "data": [
  ["FAKLLAKLAKKLL-NH2 [P43]", "P. aeruginosa H374", 1.25],
  ["FAKLLAKLAKKL-NH2 [P49]", "P. aeruginosa H374", 0.75],
  ["VALALKALKKLLKKLKKLAKKAL-NH2 [P510]", "P. aeruginosa H374", 0.5],
  ["FAKKLAKLALKLAKL-NH2 [P44]", "P. aeruginosa H374", 1.25],
  ["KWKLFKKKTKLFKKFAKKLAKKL-NH2 [P73]", "P. aeruginosa H374", 0.75],
  ["FALALKALKKLLKKLKKLAKKAL-NH2 [P24]", "P. aeruginosa H374", 1.25],
  ["FALKALKKLKKALKKAL-NH2 [P153]", "P. aeruginosa H374", 0.75],
  ["FAKLLAKFLKKAL-NH2 [P113]", "P. aeruginosa H374", 1.25],
  ["FAKKLKKLAKLAKKL-NH2 [P46]", "P. aeruginosa H374", 0.75],
  ["FAKALKALLKALKAL-NH2 [P64]", "P. aeruginosa H374", 1.25],
  ["FAKLLAKLAKLKL-NH2 [P66]", "P. aeruginosa H374", 1.25],
  ["FAVGLRAIKRALKKLRRGVRKVAKDL-NH2 [P157, reference compound]", "P. aeruginosa H374", 0.75],
  ["FAKKLAKKLKKLAKKLAKKWKL-OH [P72]", "P. aeruginosa H374", 0.75]
]}

###

# Test system: Pseudomonas aeruginosa 105663
# Assay type: cell-based
# measurement_conditions: Table 9; in µg/mL
No end group written: not given here.
MIC P. aeruginosa Tb 105663 for assorted substances
reported_metric: MIC P. aeruginosa Tb 105663

{"columns": ["substance", "target", "experimental_result"],
 "data": [
  ["LPKWKVFKKIEKVGRNIRNGIVKAGPAIAVLGEAKALG-NH2 [P306 (150)]", "Pseudomonas aeruginosa 105663", 32],
  ["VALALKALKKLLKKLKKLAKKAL-NH2 [P510 (161)]", "Pseudomonas aeruginosa 105663", 16],
  ["FAKKLAKLAKKALAL-NH2 [P39 (21)]", "Pseudomonas aeruginosa 105663", 32],
  ["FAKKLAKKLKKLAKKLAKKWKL-OH [P72 (48)]", "Pseudomonas aeruginosa 105663", 8],
  ["FAKKLAKKLKKLAKKLAK-OH [P71 (47)]", "Pseudomonas aeruginosa 105663", 16],
  ["FAKKLAKKLL-NH2 [P59 (39)]", "Pseudomonas aeruginosa 105663", 8],
  ["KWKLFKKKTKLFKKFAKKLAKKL-NH2 [P73 (49)]", "Pseudomonas aeruginosa 105663", 16],
  ["FAKLLAKLAKKLL-NH2 [P43 (25)]", "Pseudomonas aeruginosa 105663", 8],
  ["FAKLLAKALKKLL-NH2 [P55 (35)]", "Pseudomonas aeruginosa 105663", 16],
  ["FAKLLALALKKAL-NH2 [P97 (165)]", "Pseudomonas aeruginosa 105663", 16],
  ["KYKKALKKLAKLL-NH2 [P146 (108)]", "Pseudomonas aeruginosa 105663", 8],
  ["FAKLLAKALKKFAL-NH2 [P119 (81)]", "Pseudomonas aeruginosa 105663", 16],
  ["FALLKALLKKAL-NH2 [P177 (138)]", "Pseudomonas aeruginosa 105663", 32],
  ["FAKLLAKLAKKVL-NH2 [P124 (86)]", "Pseudomonas aeruginosa 105663", 64],
  ["FAKFLAKFLKKAL-NH2 [P111 (75)]", "Pseudomonas aeruginosa 105663", 32],
  ["FAKKLAKLALKLAKL-NH2 [P44 (26)]", "Pseudomonas aeruginosa 105663", 16],
  ["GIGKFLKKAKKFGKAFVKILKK-NH2 [P42 (24)]", "Pseudomonas aeruginosa 105663", 8],
  ["FAKKLAKKLKKLAKLALAK-NH2 [P41 (23)]", "Pseudomonas aeruginosa 105663", 8],
  ["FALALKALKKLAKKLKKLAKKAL-NH2 [P25 (10)]", "Pseudomonas aeruginosa 105663", 8],
  ["FAKKLKKLAKLAKKL-NH2 [P46 (28)]", "Pseudomonas aeruginosa 105663", 32],
  ["FALKALKKLKKALKKAL-NH2 [P153 (115)]", "Pseudomonas aeruginosa 105663", 8],
  ["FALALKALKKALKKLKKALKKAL-NH2 [P2 (2)]", "Pseudomonas aeruginosa 105663", 16],
  ["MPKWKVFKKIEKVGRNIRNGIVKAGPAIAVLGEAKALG-NH2 [P12 (5)]", "Pseudomonas aeruginosa 105663", 8],
  ["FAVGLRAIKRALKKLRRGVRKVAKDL-NH2 [P157 (119)]", "Pseudomonas aeruginosa 105663", 16],
  ["FAKKLAKKLAKLAL-NH2 [P45 (27)]", "Pseudomonas aeruginosa 105663", 32]
]}
